- TEST_TARGET: Neurogenic locus notch homolog protein 2 (Homo sapiens)
- TEST_PROTOCOL: Notch2 binders on small-molecule microarrays, primary screen, biochemical, small-molecule microarray, 635 nm fluorescence, stem cell growth factors (AID 1073)
- CONDITION_INFO: Notch2 binding, higher = more signal
Assignment: determine reported composite z-score for the given compounds.
Answers are plain numbers.

Observe how each entry below is paired with its result.
# COMPOUND, composite z-score
data = [
    ("COC(=O)Cn1c(C(=O)N2CCCC2)cc2c1C[C@H]1CN(C(=O)c3ccccc3)[C@@](Cc3ccccc3)(C(=O)OC)[C@@H]21", 1.56),
    ("CCOC(=O)C[C@H]1[C@H](OC(=O)c2ccccc2-c2ccccc2)[C@@H](NC(=O)C2CCCCC2)c2cc(OCCCO)ccc2N1C(=O)c1ccccc1", 0.797),
    ("O=C(NCc1ccccc1)c1ccc(Br)cc1[N+](=O)[O-]", 0.596),
]

Batch of 4 compounds: report composite z-score for each.
1. COc1ccc(NN2C(C(O)c3cc(OC)c(OC)c(OC)c3)C=CC3C(=O)N(C4CCCCC4)C(=O)C32)cc1 (stereo not drawn)
2. C#C[C@H](O[Si](C#Cc1ccccc1)(C(C)C)C(C)C)c1ccccc1
3. CO[C@H]1COC(=O)[C@H](C)NC(=O)CC=C[C@@H](C)[C@H](NS(=O)(=O)c2ccc(C)cc2)COC(=O)CC=C[C@@H]1C
4. C=C(CCCC)C(=O)CC[C@@H](OC(=O)c1cccnc1)c1cccc(OCCO)c1

1.63
-0.677
-0.543
-0.552

# query: composite z-score | item "C=CC[C@@]1(C(=O)N2CCOCC2)N=C(c2ccc(OCCCO)cc2)O[C@@H]1c1ccccc1" | system: Neurogenic locus notch homolog protein 2 (Homo sapiens)
0.369
